- Tested on: Measles morbillivirus
- method summary: Antiviral activity against Measles virus MVi/Alaska USA/16.00 genotype H2 infected in african green monkey Vero cells assessed as reduction in viral-induced cytopathogenicity
- Format: functional, organism-based
- measurement parameters: MVi/Alaska USA/16.00 genotype H2, Vero
In this section, each of the molecules is paired with its reported pEC50.
Answer as the number alone; pEC50 is minus log10 of concentration in mol/L.

Below are worked cases with known answers.
1) COc1ccc(-n2c(S[C@@H](C)C(=O)Nc3ccc(C)cc3Cl)nc3ccccc32)cc1: 6.52
2) COc1ccc(-n2c(SC(C)C(=O)Nc3ncc(C)cc3Cl)nc3ccccc32)cc1 (racemic): 7.30
3) COc1ccc(-n2c(SC(C)C(=O)Nc3nc(C)c(Cl)cc3Cl)nc3ccccc32)cc1 (racemic): 6.70

Need pEC50, item COc1ccc(-n2c(SC(C)C(=O)Nc3ccc(C)cc3Cl)nc3ccccc32)cc1 (racemic) 6.70

Further, for COc1ccc(-n2c(SC(C)C(=O)Nc3cc(Br)ccc3Br)nc3ccccc32)cc1 (racemic) ? 5.85

Further, for COc1ccc(-n2c(S[C@H](C)C(=O)Nc3ccc(C)cc3Cl)nc3ccccc32)cc1 ? 6.70
